Where these numbers come from: the supplement of paper PMC7261846

# System: Candida albicans SNY425 biofilm
# Test Method Notes: biofilm OD600 with compound plus antifungal (OD600 (absorbance)); higher = more biofilm remaining
# Stated Conditions: assay detail: disruption of 24-h mature biofilm (compound + antifungal for a second 24 h)
Reported biofilm OD600 is given for each of the following compounds.
Metric: biofilm OD600

>>> readout_value("CC(C)C[C@H](NC(=O)N[C@H](C(=O)N[C@@H](CCC(N)=O)C(=O)N[C@@H](C)C=O)[C@@H]1CCNC(=N)N1)C(=O)O [Elastatinal] + OC(Cn1cncn1)(Cn1cncn1)c1ccc(F)cc1F [fluconazole] (first compound 12.5 µM)")
0.249
>>> readout_value("CC(C)C[C@H](NC(=O)[C@H]1O[C@@H]1C(=O)O)C(=O)NCCCCN=C(N)N + CC[C@H](C)C[C@H](C)CCCCCCCCC(=O)N[C@H]1C[C@@H](O)[C@@H](NCCN)NC(=O)[C@@H]2[C@@H](O)CCN2C(=O)[C@H]([C@H](O)CCN)NC(=O)[C@H]([C@H](O)[C@@H](O)c2ccc(O)cc2)NC(=O)[C@@H]2C[C@@H](O)CN2C(=O)[C@H]([C@@H](C)O)NC1=O [caspofungin] (first compound 12.5 µM)")
0.261
>>> readout_value("Cc1ccc(S(=O)(=O)N[C@@H](Cc2ccccc2)C(=O)CCl)cc1 + C[C@@H]1[C@H](O)[C@@H](C)/C=C/C=C/C=C/C=C/C=C/C=C/C=C/[C@H](O[C@@H]2O[C@H](C)[C@@H](O)[C@H](N)[C@@H]2O)C[C@@H]2O[C@](O)(C[C@@H](O)C[C@@H](O)[C@H](O)CC[C@@H](O)C[C@@H](O)CC(=O)O[C@H]1C)C[C@H](O)[C@H]2C(=O)O [amphotericin B] (first compound 4 µM)")
0.25
